experimentalTarget: CYP2C9 (Homo sapiens)
Sequence (P11712 whole entry): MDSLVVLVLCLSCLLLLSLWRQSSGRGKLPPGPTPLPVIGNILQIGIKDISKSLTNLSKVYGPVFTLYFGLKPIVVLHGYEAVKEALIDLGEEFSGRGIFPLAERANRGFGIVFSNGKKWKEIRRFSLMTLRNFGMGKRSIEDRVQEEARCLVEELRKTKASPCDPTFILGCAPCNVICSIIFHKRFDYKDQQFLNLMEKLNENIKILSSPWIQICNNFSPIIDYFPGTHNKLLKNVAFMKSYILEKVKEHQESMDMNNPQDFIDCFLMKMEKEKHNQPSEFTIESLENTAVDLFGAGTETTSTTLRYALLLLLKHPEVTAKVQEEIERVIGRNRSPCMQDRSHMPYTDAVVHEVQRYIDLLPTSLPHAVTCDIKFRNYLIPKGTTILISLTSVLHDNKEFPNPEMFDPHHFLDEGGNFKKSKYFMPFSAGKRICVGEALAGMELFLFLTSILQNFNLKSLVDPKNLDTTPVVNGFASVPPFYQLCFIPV
assayInfo: Reversible CYP inhibition in human liver microsomes
condition: human, microsomes, pH 7.4, Percent of Control Activity, CYP 2C9, 0.979 µM, 30-Minute Preincubation
measuredEndpoint: activity at 0.979 µM (%)
Report only the number, with the unit % understood.

Prompt: Hello, I am looking for reported activity at 0.979 µM with CYP2C9 (Homo sapiens) for COc1cccc2[nH]c(C(=O)N[C@@H](CC(C)C)C(=O)N[C@@H](C[C@@H]3CCNC3=O)C(=O)CO)cc12 [PF-00835231] . Could you help?
Response: 103

###

experimentalTarget: CYP1A2 (Homo sapiens)
assayInfo: Reversible CYP inhibition in human liver microsomes
condition: human, microsomes, pH 7.4, Percent of Control Activity, CYP 1A2, 2.09 µM, 30-Minute Preincubation
measuredEndpoint: activity at 2.09 µM (%)
Give your result in % as a bare value.

Prompt: Query for CYP1A2 (Homo sapiens): what activity at 2.09 µM does the record show for COc1cccc2[nH]c(C(=O)N[C@@H](CC(C)C)C(=O)N[C@@H](C[C@@H]3CCNC3=O)C(=O)CO)cc12 ?
Response: 98.3

###

experimentalTarget: CYP2B6 (Homo sapiens, UniProt P20813)
assayInfo: Reversible CYP inhibition in human liver microsomes
Format: in vitro ADME
condition: human, human liver microsomes, pH 7.4, CYP 2B6, 0.979 µM, 30-Minute Preincubation; read-out: Percent of Control Activity
measuredEndpoint: activity at 0.979 µM
Quick note: unit goes after the number.

Prompt: Reported activity at 0.979 µM for COc1cccc2[nH]c(C(=O)N[C@@H](CC(C)C)C(=O)N[C@@H](C[C@@H]3CCNC3=O)C(=O)CO)cc12 : what is it?
Response: 100%

###

experimentalTarget: UniProt P33261
Sequence (P33261 whole entry): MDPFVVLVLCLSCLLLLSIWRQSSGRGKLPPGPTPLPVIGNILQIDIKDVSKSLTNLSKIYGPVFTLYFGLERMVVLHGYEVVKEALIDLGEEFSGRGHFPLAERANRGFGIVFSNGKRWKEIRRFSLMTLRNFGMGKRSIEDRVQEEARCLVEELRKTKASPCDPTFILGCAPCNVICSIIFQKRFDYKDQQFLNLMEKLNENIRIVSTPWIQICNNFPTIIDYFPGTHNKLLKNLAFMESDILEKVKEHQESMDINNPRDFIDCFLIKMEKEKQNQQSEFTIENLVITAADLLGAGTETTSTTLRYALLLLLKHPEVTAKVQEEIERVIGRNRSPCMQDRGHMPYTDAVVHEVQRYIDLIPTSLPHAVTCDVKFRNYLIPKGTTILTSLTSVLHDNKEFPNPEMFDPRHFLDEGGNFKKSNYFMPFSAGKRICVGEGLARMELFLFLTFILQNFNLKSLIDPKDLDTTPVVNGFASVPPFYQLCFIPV
assayInfo: Reversible CYP inhibition in human liver microsomes
condition: human, microsomes, pH 7.4
measuredEndpoint: IC50

Prompt: Quick check: IC50 on UniProt P33261, item COc1cccc2[nH]c(C(=O)N[C@@H](CC(C)C)C(=O)N[C@@H](C[C@@H]3CCNC3=O)C(=O)CO)cc12 [PF-00835231] ?
Response: > 200 µM

###

experimentalTarget: CYP2B6 (Homo sapiens, UniProt P20813)
Sequence (P20813 1-491): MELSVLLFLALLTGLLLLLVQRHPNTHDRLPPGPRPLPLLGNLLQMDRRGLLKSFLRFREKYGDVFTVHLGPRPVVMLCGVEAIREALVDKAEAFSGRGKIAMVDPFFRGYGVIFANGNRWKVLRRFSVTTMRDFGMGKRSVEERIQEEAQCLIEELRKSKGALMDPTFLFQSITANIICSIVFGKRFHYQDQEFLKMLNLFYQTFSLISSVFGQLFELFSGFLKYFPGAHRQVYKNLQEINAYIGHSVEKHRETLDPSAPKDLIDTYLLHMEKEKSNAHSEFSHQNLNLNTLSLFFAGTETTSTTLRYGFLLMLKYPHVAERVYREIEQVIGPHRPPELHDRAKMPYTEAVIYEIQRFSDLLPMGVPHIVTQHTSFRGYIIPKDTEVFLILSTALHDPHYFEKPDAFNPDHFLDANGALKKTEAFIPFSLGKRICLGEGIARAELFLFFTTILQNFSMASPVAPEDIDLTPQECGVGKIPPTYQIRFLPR
assayInfo: Reversible CYP inhibition in human liver microsomes
Type: in vitro ADME
condition: human, human liver microsomes, pH 7.4, CYP 2B6, 93.5 µM, Zero-Minute Preincubation; read-out: Percent of Control Activity
measuredEndpoint: activity at 93.5 µM (%)
Give the value in % but do not write % after it.

Prompt: Tell me the measured activity at 93.5 µM of COc1cccc2[nH]c(C(=O)N[C@@H](CC(C)C)C(=O)N[C@@H](C[C@@H]3CCNC3=O)C(=O)CO)cc12 , please.
Response: 73.7

###

assayInfo: Metabolic stability and enzyme kinetics in liver S9 (conversion to PF-00835231)
condition: human, human liver S9, pH 7.5, KM
measuredEndpoint: Km at 20 min (µM)
The reply should be a number in µM, with the unit left off.

Prompt: Give its Km at 20 min value. Item: COc1cccc2[nH]c(C(=O)N[C@@H](CC(C)C)C(=O)N[C@@H](C[C@@H]3CCNC3=O)C(=O)COP(=O)(O)O)cc12
Response: 6.23

###

assayInfo: Monkey pharmacokinetic study
condition: male, Cynomolgus, cynomolgus monkey, plasma, iv, 1 mg/kg, AUCinf, monkey, PF-00835231 active dosed 1mg/kg intravenous (crossover), individual monkeys
measuredEndpoint: AUC(0-inf) (ng·h/mL)
Supply the numeric figure in ng·h/mL, leaving out any unit text.

Prompt: Quick one: AUC(0-inf) for COc1cccc2[nH]c(C(=O)N[C@@H](CC(C)C)C(=O)N[C@@H](C[C@@H]3CCNC3=O)C(=O)CO)cc12 ?
Response: 614

###

Tested on: CYP3A4/5
assayInfo: Reversible CYP inhibition in human liver microsomes
condition: human, human liver microsomes, pH 7.4, probe midazolam (1′-hydroxylation), at approximately KM, IC50, Midazolam 1′-hydroxylation; T0
measuredEndpoint: IC50

> print(dat)
                                   compound  measuredendpoint  experimentalvalue
1  COc1cccc2[nH]c(C(=O)N[C@@H](CC(C)C)C(=O)N[C@@H](C[C@@H]3CCNC3=O)C(=O)CO)cc12 [PF-00835231]              IC50           > 200 µM

With those in mind, consider the next compound.
Prompt: # IC50 lookup, item COc1cccc2[nH]c(C(=O)N[C@@H](CC(C)C)C(=O)N[C@@H](C[C@@H]3CCNC3=O)C(=O)COP(=O)(O)O)cc12 [PF-07304814]
Response: > 100 µM

###

experimentalTarget: CYP1A2 (Homo sapiens, UniProt P05177)
Sequence (P05177 1-516): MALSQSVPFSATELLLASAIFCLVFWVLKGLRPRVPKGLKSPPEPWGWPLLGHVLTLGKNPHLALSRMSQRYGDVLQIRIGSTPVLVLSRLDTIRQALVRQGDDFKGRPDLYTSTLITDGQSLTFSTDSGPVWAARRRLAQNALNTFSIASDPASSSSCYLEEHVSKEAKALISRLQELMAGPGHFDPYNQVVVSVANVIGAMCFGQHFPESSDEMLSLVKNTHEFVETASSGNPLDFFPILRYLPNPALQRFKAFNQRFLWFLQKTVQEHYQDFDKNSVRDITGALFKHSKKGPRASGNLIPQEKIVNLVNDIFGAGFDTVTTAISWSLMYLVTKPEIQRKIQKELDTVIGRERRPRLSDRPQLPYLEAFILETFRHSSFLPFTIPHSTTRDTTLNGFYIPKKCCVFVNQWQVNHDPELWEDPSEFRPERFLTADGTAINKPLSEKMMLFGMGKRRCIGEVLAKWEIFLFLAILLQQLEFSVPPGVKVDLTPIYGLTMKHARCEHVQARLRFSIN
assayInfo: Reversible CYP inhibition in human liver microsomes
condition: human, microsomes, pH 7.4, Percent of Control Activity, CYP 1A2, 0.01 µM, 30-Minute Preincubation
measuredEndpoint: activity at 0.01 µM (%)
The figure you give is taken to be in %; do not add the unit.

Prompt: Can you look up activity at 0.01 µM on CYP1A2 (Homo sapiens, UniProt P05177) for COc1cccc2[nH]c(C(=O)N[C@@H](CC(C)C)C(=O)N[C@@H](C[C@@H]3CCNC3=O)C(=O)COP(=O)(O)O)cc12 ?
Response: 96.7

###

experimentalTarget: UniProtKB P10635
Sequence (P10635 whole entry): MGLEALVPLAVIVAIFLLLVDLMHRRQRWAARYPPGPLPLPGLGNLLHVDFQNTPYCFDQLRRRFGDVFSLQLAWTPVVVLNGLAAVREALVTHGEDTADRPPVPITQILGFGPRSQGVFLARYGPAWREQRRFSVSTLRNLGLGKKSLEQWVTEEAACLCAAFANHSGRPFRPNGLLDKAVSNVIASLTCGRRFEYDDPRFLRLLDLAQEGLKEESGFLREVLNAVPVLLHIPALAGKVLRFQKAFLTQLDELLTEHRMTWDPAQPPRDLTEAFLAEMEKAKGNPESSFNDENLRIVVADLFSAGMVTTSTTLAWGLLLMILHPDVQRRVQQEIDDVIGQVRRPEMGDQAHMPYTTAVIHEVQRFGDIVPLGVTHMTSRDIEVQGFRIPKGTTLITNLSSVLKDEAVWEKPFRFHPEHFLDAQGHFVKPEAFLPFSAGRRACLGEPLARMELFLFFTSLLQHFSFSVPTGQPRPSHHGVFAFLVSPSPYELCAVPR
assayInfo: Reversible CYP inhibition in human liver microsomes
condition: human, microsomes, pH 7.4, Percent of Control Activity, CYP 2D6, 4.48 µM, 30-Minute Preincubation
measuredEndpoint: activity at 4.48 µM (%)
Provide the reading as a plain figure in %.

Prompt: Give the measured activity at 4.48 µM of COc1cccc2[nH]c(C(=O)N[C@@H](CC(C)C)C(=O)N[C@@H](C[C@@H]3CCNC3=O)C(=O)CO)cc12 .
Response: 109

###

assayInfo: Metabolic stability and enzyme kinetics in liver S9 (conversion to PF-00835231)
condition: rat, liver S9, pH 7.5, CLint,app
measuredEndpoint: microsomal CLint (µL/min/mg)
Write the answer as a number in µL/min/mg, unit excluded.

Prompt: // lookup microsomal CLint for COc1cccc2[nH]c(C(=O)N[C@@H](CC(C)C)C(=O)N[C@@H](C[C@@H]3CCNC3=O)C(=O)COP(=O)(O)O)cc12
Response: 45.5

###

assayInfo: Rat pharmacokinetic study
condition: male, Wistar-Hannover, rat, plasma, po, 5 mg/kg, AUCt, Mean, PF-00835231 5mg/kg PO dose
measuredEndpoint: AUC(0-t) (ng·h/mL)
Entry rule: numbers only, all in ng·h/mL.

Prompt: Entry under review: COc1cccc2[nH]c(C(=O)N[C@@H](CC(C)C)C(=O)N[C@@H](C[C@@H]3CCNC3=O)C(=O)CO)cc12 . Reported AUC(0-t)?
Response: 12.8
